Measurement Label: pIC50
pIC50 (log units): -log10 of the concentration in mol/L.

Under PARP-1 (Homo sapiens): report pIC50 of `NCCS(=O)(=O)O` .
3.49

Provenance of the data: paper PMC2994389
